# System: P-gp (Homo sapiens)
# Sequence (P08183 whole entry): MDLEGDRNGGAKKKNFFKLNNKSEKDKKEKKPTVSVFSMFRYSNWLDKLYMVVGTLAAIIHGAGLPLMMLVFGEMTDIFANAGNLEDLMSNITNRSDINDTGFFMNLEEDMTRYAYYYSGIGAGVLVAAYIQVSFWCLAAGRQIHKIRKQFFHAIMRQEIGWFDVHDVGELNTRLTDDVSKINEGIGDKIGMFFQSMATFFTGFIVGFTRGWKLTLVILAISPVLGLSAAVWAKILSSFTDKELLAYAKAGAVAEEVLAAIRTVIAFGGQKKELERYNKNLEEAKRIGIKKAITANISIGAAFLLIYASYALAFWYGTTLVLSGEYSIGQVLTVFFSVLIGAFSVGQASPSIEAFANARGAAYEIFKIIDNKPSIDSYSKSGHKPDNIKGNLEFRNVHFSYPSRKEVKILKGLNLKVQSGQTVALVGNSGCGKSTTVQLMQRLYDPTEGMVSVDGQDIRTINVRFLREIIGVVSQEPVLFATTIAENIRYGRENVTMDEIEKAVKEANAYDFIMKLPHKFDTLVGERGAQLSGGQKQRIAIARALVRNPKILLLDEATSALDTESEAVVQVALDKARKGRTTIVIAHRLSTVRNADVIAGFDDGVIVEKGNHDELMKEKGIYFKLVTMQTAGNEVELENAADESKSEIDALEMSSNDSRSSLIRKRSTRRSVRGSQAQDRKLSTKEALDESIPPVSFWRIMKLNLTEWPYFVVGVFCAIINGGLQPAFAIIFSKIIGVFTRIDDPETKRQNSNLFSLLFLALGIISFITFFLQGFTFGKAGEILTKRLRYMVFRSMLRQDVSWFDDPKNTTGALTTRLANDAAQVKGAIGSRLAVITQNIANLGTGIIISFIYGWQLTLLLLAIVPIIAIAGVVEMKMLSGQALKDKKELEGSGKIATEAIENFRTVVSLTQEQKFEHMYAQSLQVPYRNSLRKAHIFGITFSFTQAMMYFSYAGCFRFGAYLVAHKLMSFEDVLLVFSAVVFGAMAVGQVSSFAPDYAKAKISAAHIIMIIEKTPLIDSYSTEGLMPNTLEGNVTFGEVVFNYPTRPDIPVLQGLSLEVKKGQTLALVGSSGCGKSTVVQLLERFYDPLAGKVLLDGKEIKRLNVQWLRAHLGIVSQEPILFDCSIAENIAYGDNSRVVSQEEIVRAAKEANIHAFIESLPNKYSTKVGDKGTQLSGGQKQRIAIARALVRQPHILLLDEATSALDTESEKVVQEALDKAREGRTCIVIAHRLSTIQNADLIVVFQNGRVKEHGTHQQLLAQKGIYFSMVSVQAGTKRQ
# Procedure Details: Calcein-AM efflux assay in KB CH^R 8-5 cells
# Assay Setup: 10 μM compound, 0.5 μM calcein-AM, 10 min, 37 °C
Value Type: Calcein-AM Efflux % inhibition (%)
Number in %, nothing else.

These solved cases illustrate the format of a correct answer.
Compound	Calcein-AM Efflux % inhibition, %
COc1ccc([C@@H]2CC(=O)c3c(O)cc(O[C@@H]4O[C@H](CO[C@@H]5O[C@@H](C)[C@H](O)[C@@H](O)[C@H]5O)[C@@H](O)[C@H](O)[C@H]4O)cc3O2)cc1O [Hesperidin]	29.58
O=C(O[C@@H]1Cc2c(O)cc(O)cc2O[C@@H]1c1ccc(O)c(O)c1)c1cc(O)c(O)c(O)c1 [(-)-Epicatechin 3-gallate]	83.25
COc1ccc(-c2cc(=O)c3c(OC)c(OC)c(OC)c(OC)c3o2)cc1 [Tangeritin]	14.23

Would you kindly look at the next entry?
Inquiry: Returns the measured Calcein-AM Efflux % inhibition for the input compound. Input: COc1cc(C2Oc3cc([C@H]4Oc5cc(O)cc(O)c5C(=O)[C@@H]4O)ccc3OC2CO)ccc1O (stereo partly shown) [Silibinin]
Reply text: 63.75
